# SYSTEM: T1, recombinant human PD-L1 (amino acids 19-239 of NP_054862.1) with a C-terminal myc-myc-hexahistidine tag (human)
# T1 construct: also called hPD-L1-MMH; hPD-L1-MMH Monomer
# T1 sequence (chain, as listed by the source limits assumed): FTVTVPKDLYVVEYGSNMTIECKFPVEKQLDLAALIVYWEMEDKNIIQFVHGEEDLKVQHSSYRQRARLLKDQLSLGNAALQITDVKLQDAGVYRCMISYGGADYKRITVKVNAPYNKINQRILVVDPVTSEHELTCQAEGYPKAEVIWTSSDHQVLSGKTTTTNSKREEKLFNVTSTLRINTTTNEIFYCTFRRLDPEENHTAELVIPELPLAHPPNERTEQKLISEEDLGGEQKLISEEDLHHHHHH
# PROTOCOL SUMMARY: SPR (Biacore), mAb captured, 37C
REPORTED PROPERTY: log10 of kon (log10 of the value in M⁻¹ s⁻¹)

BINDER	log10 of kon
H2aM8321N (antibody, mouse IgG2, V domains shown, also called H2M8321N) VH: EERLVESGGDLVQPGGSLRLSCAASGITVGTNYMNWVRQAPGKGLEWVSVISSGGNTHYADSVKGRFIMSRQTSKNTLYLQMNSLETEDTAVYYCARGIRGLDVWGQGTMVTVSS VL: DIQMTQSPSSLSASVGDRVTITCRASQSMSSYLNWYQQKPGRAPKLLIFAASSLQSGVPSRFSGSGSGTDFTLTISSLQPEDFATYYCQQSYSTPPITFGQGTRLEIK	5.00
H2aM8310N (antibody, mouse IgG2, V domains shown, also called H2M8310N) VH: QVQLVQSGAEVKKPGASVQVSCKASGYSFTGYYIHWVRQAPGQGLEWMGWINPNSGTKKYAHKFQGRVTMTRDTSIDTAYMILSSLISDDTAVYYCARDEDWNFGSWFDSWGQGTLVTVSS VL: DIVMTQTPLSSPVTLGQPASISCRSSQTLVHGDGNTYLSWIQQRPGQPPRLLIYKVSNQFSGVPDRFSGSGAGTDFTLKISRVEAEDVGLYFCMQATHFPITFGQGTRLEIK	5.12
H2aM8314N (antibody, mouse IgG2, V domains shown, also called H2M8314N) VH: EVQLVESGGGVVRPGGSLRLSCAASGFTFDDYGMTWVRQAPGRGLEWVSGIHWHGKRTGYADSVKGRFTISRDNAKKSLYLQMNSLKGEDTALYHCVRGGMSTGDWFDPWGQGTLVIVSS VL: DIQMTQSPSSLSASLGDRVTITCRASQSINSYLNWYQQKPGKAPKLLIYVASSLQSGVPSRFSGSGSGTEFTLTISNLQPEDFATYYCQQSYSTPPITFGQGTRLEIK	6.03
H2aM8317N (antibody, mouse IgG2, V domains shown, also called H2M8317N) VH: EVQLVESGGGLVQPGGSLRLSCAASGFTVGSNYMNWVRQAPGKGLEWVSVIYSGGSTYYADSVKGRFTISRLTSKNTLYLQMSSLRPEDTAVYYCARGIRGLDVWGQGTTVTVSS VL: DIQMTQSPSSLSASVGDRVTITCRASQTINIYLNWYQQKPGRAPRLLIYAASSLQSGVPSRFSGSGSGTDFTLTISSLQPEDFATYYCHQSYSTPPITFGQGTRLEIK	4.96
H1H9336P (antibody, human IgG1, V domains shown) VH: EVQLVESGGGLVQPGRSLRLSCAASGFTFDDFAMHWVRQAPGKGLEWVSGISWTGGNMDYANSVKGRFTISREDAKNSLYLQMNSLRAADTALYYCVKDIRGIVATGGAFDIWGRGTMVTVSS VL: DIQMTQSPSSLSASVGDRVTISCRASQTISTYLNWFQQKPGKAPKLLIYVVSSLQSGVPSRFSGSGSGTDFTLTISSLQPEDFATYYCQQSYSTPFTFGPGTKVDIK	6.03
H1H9329P (antibody, human IgG1, V domains shown) VH: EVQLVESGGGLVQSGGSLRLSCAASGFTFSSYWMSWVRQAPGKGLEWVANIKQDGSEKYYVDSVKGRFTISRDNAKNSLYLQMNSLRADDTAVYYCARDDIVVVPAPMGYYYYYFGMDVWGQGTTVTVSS VL: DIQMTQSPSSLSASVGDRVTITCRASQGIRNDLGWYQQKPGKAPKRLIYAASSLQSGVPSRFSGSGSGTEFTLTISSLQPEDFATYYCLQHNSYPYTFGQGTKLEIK	6.45
H2aM8323N (antibody, mouse IgG2, V domains shown, also called H2M8323N) VH: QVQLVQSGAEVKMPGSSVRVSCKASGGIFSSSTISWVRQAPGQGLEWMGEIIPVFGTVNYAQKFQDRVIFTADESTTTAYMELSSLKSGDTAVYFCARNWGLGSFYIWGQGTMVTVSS VL: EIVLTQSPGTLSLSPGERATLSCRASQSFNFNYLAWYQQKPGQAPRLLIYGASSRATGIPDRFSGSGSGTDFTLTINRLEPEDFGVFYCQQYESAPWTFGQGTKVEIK	6.14
